Origin of values: the supplement of paper PMC10065799

# assay-system: EPHB2 (UniProt P29323)
# Sequence (P29323 whole entry, looked up): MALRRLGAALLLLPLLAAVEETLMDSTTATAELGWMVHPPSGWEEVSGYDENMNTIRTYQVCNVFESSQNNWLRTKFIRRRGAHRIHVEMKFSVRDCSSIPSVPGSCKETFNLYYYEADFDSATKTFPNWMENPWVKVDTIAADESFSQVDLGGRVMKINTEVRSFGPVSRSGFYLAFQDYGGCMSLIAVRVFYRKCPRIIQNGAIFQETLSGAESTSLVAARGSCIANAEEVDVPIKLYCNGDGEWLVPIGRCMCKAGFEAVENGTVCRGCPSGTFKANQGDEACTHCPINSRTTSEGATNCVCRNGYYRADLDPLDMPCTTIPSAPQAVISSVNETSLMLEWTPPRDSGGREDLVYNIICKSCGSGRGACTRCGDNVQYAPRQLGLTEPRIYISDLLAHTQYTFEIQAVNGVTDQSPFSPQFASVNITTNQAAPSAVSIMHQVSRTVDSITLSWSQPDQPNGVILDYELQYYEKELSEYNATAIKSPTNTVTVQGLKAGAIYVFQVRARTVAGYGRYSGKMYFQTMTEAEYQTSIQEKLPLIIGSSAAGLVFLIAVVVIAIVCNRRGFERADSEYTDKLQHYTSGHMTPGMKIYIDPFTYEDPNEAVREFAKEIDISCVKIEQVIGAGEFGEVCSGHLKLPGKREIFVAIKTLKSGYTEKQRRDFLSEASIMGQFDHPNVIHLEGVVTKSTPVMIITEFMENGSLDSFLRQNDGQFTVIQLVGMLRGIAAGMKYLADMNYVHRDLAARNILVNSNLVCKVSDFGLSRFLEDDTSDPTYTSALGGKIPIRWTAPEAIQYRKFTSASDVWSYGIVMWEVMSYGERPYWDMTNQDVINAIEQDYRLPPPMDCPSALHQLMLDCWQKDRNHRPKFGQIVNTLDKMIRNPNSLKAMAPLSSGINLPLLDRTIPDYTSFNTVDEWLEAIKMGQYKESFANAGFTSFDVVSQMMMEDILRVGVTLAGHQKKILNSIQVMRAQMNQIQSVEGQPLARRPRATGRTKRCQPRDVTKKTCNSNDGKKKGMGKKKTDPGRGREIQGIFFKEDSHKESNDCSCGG
# assay-protocol: phosphorylation enrichment, bacterial display (enrichment ratio); higher = better substrate or ligand; peptides without Tyr show the background;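 also: 11-residue human phosphosite peptides and single-mutation variants displayed on the E. coli surface, counted by deep sequencing, each peptide's frequency after selection divided by its frequency in the unselected input library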;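 also: frequency after pTyr selection over input frequency; kinase dosed for 20-30% of maximal phosphorylation in three min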
Rule: 1 for phosphorylation enrichment not less than 0.6, -1 for anything less.

Request: Evaluate DGTESYLTVSS [PLK1_Y462] : phosphorylation enrichment at minimum 0.6?
Result: -1

Request: Evaluate LLKKIYLMLDN [STAT1_Y203_M202I] : phosphorylation enrichment at minimum 0.6?
Result: 1

Request: Evaluate HESEIYCKVCF [CSRP3_Y57_YF] : phosphorylation enrichment at minimum 0.6?
Result: 1

Request: Evaluate ESDFTYSSSFE [SRPK2_Y427_YF] : phosphorylation enrichment at minimum 0.6?
Result: -1

Request: Evaluate LRVGFYESDVM [A2M_Y708] : phosphorylation enrichment at minimum 0.6?
Result: 1

Request: Evaluate TNEFEYDELIV [TGM1_Y136_D132N_YF] : phosphorylation enrichment at minimum 0.6?
Result: -1

Request: Evaluate ISHVAYCVLGK [TRRAP_Y892_R893C] : phosphorylation enrichment at minimum 0.6?
Result: 1

Request: Evaluate SKLTIYDGRPS [MTM1_Y277_A279G] : phosphorylation enrichment at minimum 0.6?
Result: -1

Request: Evaluate SSMIDYNLLEK [MYOC_Y479_P481L] : phosphorylation enrichment at minimum 0.6?
Result: -1

Request: Evaluate SIKDKYVTALC [KCNH2_Y611_Y616C] : phosphorylation enrichment at minimum 0.6?
Result: -1

Request: Evaluate AALKLYHVSDS [VIL1_Y256] : phosphorylation enrichment at minimum 0.6?
Result: -1

Request: Evaluate PTTKTYLPHFD [HBA1_Y43_F44L] : phosphorylation enrichment at minimum 0.6?
Result: -1

Request: Evaluate DISEPYEVFRI [IRF8_Y107_K108E_YF] : phosphorylation enrichment at minimum 0.6?
Result: -1

---

# assay-system: Hck (UniProt P08631)
# Sequence (P08631 whole entry, looked up): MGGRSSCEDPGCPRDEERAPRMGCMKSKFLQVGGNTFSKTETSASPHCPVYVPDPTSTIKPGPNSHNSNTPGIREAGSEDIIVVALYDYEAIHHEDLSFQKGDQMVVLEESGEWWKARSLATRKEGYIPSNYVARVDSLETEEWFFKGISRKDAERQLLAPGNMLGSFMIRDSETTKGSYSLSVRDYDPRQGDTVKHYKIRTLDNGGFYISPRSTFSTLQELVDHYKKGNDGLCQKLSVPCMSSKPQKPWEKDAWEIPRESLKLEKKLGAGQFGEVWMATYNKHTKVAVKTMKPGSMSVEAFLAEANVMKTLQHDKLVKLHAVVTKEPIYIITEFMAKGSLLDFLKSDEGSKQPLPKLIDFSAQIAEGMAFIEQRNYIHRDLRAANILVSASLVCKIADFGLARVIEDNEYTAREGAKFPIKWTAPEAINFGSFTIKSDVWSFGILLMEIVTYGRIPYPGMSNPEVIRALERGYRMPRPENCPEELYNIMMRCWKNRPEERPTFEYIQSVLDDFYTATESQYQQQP
# assay-protocol: phosphorylation enrichment, bacterial display (enrichment ratio); higher = better substrate or ligand; peptides without Tyr show the background
measured-quantity: phosphorylation enrichment
In your answer, state the number alone without any accompanying words.

Notebook: HSFQCYGQNEA [ENTPD3_Y262_R264Q] , phosphorylation enrichment read as 0.701

Notebook: PTTKTYFPHFH [HBA1_Y43_D48H] , phosphorylation enrichment read as 0.688

Notebook: CLAKMYYSAVD [CP_Y539] , phosphorylation enrichment read as 0.708

Notebook: TKEPKYGGAGS [KIAA1210_Y1615_E1616G] , phosphorylation enrichment read as 0.361

Notebook: SDVSSYLEGQA [GCG_Y110] , phosphorylation enrichment read as 0.488

Notebook: ILTLKYLIEHG [ACTG1_Y69_P70L] , phosphorylation enrichment read as 0.557

Notebook: TNEFEYDELIV [TGM1_Y136_D132N_YF] , phosphorylation enrichment read as 0.747

Notebook: TRSFDYMEGED [FGF7_Y58_G62E_YF] , phosphorylation enrichment read as 0.738

---

# assay-system: Jak2 (UniProt O60674)
# Sequence (O60674 whole entry, looked up): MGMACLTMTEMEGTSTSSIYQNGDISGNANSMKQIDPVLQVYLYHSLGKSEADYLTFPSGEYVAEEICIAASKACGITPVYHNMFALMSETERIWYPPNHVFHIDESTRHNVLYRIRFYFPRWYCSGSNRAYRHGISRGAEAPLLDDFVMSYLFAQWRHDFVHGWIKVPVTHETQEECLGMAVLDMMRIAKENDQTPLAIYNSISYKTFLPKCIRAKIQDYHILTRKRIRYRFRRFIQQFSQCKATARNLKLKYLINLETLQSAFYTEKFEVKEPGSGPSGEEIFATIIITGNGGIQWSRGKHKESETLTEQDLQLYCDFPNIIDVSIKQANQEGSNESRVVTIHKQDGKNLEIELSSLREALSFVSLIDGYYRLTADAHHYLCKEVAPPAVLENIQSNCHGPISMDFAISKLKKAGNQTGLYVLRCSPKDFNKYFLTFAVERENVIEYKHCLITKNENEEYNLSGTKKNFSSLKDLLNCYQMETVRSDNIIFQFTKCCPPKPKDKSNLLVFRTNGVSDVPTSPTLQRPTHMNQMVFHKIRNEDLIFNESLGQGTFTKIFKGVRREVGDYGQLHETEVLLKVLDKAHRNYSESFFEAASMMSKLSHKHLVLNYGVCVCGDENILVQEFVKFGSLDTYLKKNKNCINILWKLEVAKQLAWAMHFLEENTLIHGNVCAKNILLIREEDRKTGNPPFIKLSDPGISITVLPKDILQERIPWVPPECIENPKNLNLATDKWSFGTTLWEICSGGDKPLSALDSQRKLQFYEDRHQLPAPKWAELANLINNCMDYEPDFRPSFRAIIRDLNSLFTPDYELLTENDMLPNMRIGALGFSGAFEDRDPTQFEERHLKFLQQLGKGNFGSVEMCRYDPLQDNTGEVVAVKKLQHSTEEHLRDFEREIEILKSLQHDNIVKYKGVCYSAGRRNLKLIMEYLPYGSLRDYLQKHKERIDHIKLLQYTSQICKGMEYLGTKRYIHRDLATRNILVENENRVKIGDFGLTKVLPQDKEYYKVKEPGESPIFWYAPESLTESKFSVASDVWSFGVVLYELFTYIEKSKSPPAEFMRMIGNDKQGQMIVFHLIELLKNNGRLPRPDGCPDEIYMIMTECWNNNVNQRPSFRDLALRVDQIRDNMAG
# assay-protocol: phosphorylation enrichment, bacterial display (enrichment ratio); higher = better substrate or ligand; peptides without Tyr show the background
// map phosphorylation enrichment to label using lower band (below 0.7), central band (0.7 to below 1), upper band (1 or more)

Request: Determine which band this sequence sits in: KASGKYYAMKI [AKT3_Y173]
Result: lower band

Request: Determine which band this sequence sits in: SQSAKYDMAED [TTC21B_Y1213_I1208S]
Result: central band

Request: Determine which band this sequence sits in: DFFDLYGGEKL [PTPN11_Y66_F71L_YF]
Result: upper band

Request: Determine which band this sequence sits in: QSAGQYSSQGL [TNNI3K_Y788]
Result: lower band

Request: Determine which band this sequence sits in: ADCRYYAFPQM [GAMT_Y223]
Result: upper band

Request: Determine which band this sequence sits in: SHGQDYLVGNK [GSTA1_Y147]
Result: lower band

Request: Determine which band this sequence sits in: LLKKIYLMLDN [STAT1_Y203_M202I]
Result: upper band

Request: Determine which band this sequence sits in: RLVTRYIFNRE [HLA-DQB1_Y62_Y58L_YF]
Result: lower band

Request: Determine which band this sequence sits in: IRSGIYYKPES [L2HGDH_Y102_H98R]
Result: upper band

Request: Determine which band this sequence sits in: LSIQTYSALNF [DES_Y423_P419S]
Result: upper band

Request: Determine which band this sequence sits in: ASTDYYKRGDF [PDHA1_Y243]
Result: central band

Request: Determine which band this sequence sits in: SVVVHYEPPEV [TP53_Y220_P219H]
Result: central band

Request: Determine which band this sequence sits in: MSRDVYSTDYY [NTRK2_Y702]
Result: central band

Request: Determine which band this sequence sits in: KVMANYVFKAG [MAML2_Y513_M514V_YF]
Result: lower band

Request: Determine which band this sequence sits in: PLGVLYKVKVF [PTS_Y128_V124L_YF]
Result: upper band

Request: Determine which band this sequence sits in: QMVDMYASSYM [AVPR2_Y124_G122D]
Result: central band

Request: Determine which band this sequence sits in: LTDTVYSSSSA [OR4C12_Y71_I67T]
Result: upper band

Request: Determine which band this sequence sits in: YSNVLYRPRGP [TMIGD2_Y197_A202P]
Result: lower band

Request: Determine which band this sequence sits in: QLDQHYLLVPE [DDX49_Y223_R222H]
Result: upper band

Request: Determine which band this sequence sits in: LVMFIYDIFGM [SCN1A_Y1684_A1685D]
Result: upper band

Request: Determine which band this sequence sits in: NTVDYYDLYGG [PTPN11_Y63_G60V]
Result: upper band

Request: Determine which band this sequence sits in: ETKKQYDSFTY [TMED3_Y85]
Result: lower band

Request: Determine which band this sequence sits in: NDTAGYFVIGG [SEL1L3_Y399_I401V]
Result: upper band

Request: Determine which band this sequence sits in: SMEGLYSSAQD [CLIC5_Y111_T114A]
Result: upper band

Request: Determine which band this sequence sits in: FFRKFYNKSED [RYR1_Y4864]
Result: lower band

Request: Determine which band this sequence sits in: HYECKYVINAI [MAOA_Y268]
Result: central band

Request: Determine which band this sequence sits in: ISDNAYQYMLT [MYH7_Y162]
Result: upper band

---

# assay-system: MERTK (UniProt Q12866)
# Sequence (Q12866 whole entry, looked up): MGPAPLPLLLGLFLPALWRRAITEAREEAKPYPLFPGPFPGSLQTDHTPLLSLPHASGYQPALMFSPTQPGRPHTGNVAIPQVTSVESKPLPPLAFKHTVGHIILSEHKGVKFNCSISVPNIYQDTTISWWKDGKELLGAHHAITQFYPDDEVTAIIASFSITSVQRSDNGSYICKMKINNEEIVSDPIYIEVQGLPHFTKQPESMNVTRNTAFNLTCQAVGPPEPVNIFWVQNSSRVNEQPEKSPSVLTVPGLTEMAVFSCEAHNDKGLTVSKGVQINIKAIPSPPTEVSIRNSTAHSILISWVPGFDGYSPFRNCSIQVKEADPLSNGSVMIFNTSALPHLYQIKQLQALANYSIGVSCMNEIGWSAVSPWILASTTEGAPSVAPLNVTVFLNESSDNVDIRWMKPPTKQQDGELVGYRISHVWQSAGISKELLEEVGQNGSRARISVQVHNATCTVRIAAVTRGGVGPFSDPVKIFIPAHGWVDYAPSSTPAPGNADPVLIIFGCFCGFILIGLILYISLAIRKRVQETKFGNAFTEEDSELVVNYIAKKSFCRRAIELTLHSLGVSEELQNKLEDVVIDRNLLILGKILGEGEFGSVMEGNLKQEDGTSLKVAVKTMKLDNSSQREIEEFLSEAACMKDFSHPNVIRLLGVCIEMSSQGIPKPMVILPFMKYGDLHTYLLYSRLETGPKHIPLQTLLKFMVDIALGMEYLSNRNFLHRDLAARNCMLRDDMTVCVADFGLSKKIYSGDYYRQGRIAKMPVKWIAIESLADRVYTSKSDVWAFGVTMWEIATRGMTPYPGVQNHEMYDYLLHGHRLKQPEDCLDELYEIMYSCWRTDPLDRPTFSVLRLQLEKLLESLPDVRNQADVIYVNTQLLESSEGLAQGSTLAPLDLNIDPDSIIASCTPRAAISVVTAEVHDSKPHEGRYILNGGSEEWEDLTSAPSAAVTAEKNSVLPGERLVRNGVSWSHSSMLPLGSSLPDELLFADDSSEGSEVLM
# assay-protocol: phosphorylation enrichment, bacterial display (enrichment ratio); higher = better substrate or ligand; peptides without Tyr show the background
measured-quantity: phosphorylation enrichment
In your answer, state the number alone without any accompanying words.

Notebook: HNGVSYFINLC [IGF2R_Y2024_YF] , phosphorylation enrichment read as 0.613

Notebook: EALDFYGEVKT [PTEN_Y155_R159K] , phosphorylation enrichment read as 0.409

Notebook: TGTQLYGRFGS [ITGA2B_Y384] , phosphorylation enrichment read as 0.732

Notebook: DRLASDLDKVR [KRT10_Y160_Y160D] , phosphorylation enrichment read as 0.362

Notebook: SVTCTYSPALT [TP53_Y126_N131T] , phosphorylation enrichment read as 0.432

---

# assay-system: Fes (UniProt P07332)
# Sequence (P07332 whole entry, looked up): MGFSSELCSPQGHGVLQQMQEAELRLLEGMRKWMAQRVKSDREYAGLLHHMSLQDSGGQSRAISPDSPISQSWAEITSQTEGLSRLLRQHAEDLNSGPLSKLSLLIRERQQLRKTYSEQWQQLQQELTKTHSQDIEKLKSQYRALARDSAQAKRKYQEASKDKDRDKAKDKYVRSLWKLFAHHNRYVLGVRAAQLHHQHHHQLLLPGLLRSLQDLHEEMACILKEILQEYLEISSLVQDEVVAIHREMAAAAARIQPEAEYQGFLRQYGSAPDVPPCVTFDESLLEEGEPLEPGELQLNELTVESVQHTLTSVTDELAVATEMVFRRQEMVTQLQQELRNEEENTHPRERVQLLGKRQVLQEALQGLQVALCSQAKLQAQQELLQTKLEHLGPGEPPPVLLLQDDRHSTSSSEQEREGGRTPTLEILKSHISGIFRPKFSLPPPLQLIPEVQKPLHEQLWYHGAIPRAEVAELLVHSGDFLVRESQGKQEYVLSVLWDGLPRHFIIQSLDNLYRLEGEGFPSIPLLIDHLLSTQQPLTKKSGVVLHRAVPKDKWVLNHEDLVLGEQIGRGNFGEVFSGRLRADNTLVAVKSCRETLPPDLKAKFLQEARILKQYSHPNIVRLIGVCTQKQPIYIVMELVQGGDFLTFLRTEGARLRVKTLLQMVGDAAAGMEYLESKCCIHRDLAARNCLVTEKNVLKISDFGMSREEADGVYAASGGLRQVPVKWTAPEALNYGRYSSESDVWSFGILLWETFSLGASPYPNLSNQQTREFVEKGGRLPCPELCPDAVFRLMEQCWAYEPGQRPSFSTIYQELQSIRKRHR
# assay-protocol: phosphorylation enrichment, bacterial display (enrichment ratio); higher = better substrate or ligand; peptides without Tyr show the background
measured-quantity: phosphorylation enrichment
In your answer, state the number alone without any accompanying words.

Notebook: QRRYVYYYSYL [PTEN_Y176] , phosphorylation enrichment read as 1.32

Notebook: VEQIHYIGQNE [HMOX2_Y140_R137Q] , phosphorylation enrichment read as 0.663

Notebook: QDIMAYRSREV [BCL6_Y157_G159S] , phosphorylation enrichment read as 0.746

Notebook: LGLDEYLDKLK [FMNL2_Y352] , phosphorylation enrichment read as 1.27

Notebook: WNEVGYDDIGG [VCP_Y203_L198W] , phosphorylation enrichment read as 1.27

---

# assay-system: EPHB2 (UniProt P29323)
# assay-protocol: phosphorylation enrichment, bacterial display (enrichment ratio); higher = better substrate or ligand; peptides without Tyr show the background
Rule: 1 for phosphorylation enrichment not less than 0.5, 0 for anything less.

Request: Evaluate VKPENYRRLDV [VHL_Y175_I180V] : phosphorylation enrichment at minimum 0.5?
Result: 0

Request: Evaluate GGGGSYNVFGN [HNRNPA1_Y312_D314V] : phosphorylation enrichment at minimum 0.5?
Result: 1

Request: Evaluate VDTRAYFTSAT [MT-CO1_Y304] : phosphorylation enrichment at minimum 0.5?
Result: 0

Request: Evaluate FEAMEYLESKQ [BTK_Y511_C506Y_YF] : phosphorylation enrichment at minimum 0.5?
Result: 1

Request: Evaluate TSHKGYVAFLE [CARD9_Y76_G72S] : phosphorylation enrichment at minimum 0.5?
Result: 0

Request: Evaluate AGADGYDYLAP [FOXL2_Y186_G187D] : phosphorylation enrichment at minimum 0.5?
Result: 1

Request: Evaluate FFRKFYNKSED [RYR1_Y4864] : phosphorylation enrichment at minimum 0.5?
Result: 1

Request: Evaluate YRDALYKSMVD [PHEX_Y250_F252S] : phosphorylation enrichment at minimum 0.5?
Result: 1

Request: Evaluate PVKDGYQMAQP [CSF1R_Y873_L868P] : phosphorylation enrichment at minimum 0.5?
Result: 0

Request: Evaluate DVCKKYAEAKD [ALB_Y343_N342K] : phosphorylation enrichment at minimum 0.5?
Result: 1

Request: Evaluate KPAFSYTSSST [SIM1_Y356] : phosphorylation enrichment at minimum 0.5?
Result: 1

Request: Evaluate PLDGEYFTLQI [TP53_Y327] : phosphorylation enrichment at minimum 0.5?
Result: 1

Request: Evaluate SLAARYYNWVC [FLT4_Y1230_S1235C] : phosphorylation enrichment at minimum 0.5?
Result: 1

Request: Evaluate GAVDTYCRHNF [HLA-DRB1_Y107_A102G_YF] : phosphorylation enrichment at minimum 0.5?
Result: 1

Request: Evaluate DSLASYLDKVR [KRT10_Y160_R156S] : phosphorylation enrichment at minimum 0.5?
Result: 0

Request: Evaluate RGSQQYRALPV [TUBB8_Y281_T285P] : phosphorylation enrichment at minimum 0.5?
Result: 1

Request: Evaluate ACEVLYNIAFM [NCF2_Y125] : phosphorylation enrichment at minimum 0.5?
Result: 1

Request: Evaluate KVMANYVFKAG [MAML2_Y513_M514V_YF] : phosphorylation enrichment at minimum 0.5?
Result: 1

Request: Evaluate ASTDYYKRGDF [PDHA1_Y243] : phosphorylation enrichment at minimum 0.5?
Result: 0

Request: Evaluate TIQDAYMHITS [ADCY10_Y318_A313T] : phosphorylation enrichment at minimum 0.5?
Result: 0

Request: Evaluate RYVTRYIYNRE [HLA-DQB1_Y62] : phosphorylation enrichment at minimum 0.5?
Result: 1

Request: Evaluate GADAIYDHINE [UQCR10_Y44] : phosphorylation enrichment at minimum 0.5?
Result: 1
